Hey, just so you know, these numbers are from paper PMC9838217.

tested-system: SALL4 ZFC4 G921D (HT-SELEX) (Mus musculus, UniProt Q8BX22 870-940, G921D)
Sequence: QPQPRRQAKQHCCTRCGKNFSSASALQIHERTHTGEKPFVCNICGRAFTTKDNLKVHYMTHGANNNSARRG
assay-notes: HT-SELEX; high values mean tight binding
particulars: protein: recombinant; vector His6-GST; dsDNA, one strand shown
Known binding signal of a selection of sequences

input-sequence: TCTAGA
binding signal, fold-change vs cycle 0: 1.41
//
input-sequence: GTGCTA
binding signal, fold-change vs cycle 0: 0.796
//
input-sequence: CCCGGA
binding signal, fold-change vs cycle 0: 0.334
//
input-sequence: CGGCAC
binding signal, fold-change vs cycle 0: 0.207
//
input-sequence: CAATCA
binding signal, fold-change vs cycle 0: 1.4
//
input-sequence: ATGCAA
binding signal, fold-change vs cycle 0: 1.18
//
input-sequence: AGCTTC
binding signal, fold-change vs cycle 0: 0.895
//
input-sequence: ACTTAG
binding signal, fold-change vs cycle 0: 1.42
//
input-sequence: TCCGCA
binding signal, fold-change vs cycle 0: 0.408
//
input-sequence: GAGCTA
binding signal, fold-change vs cycle 0: 0.858
//
input-sequence: CTACTA
binding signal, fold-change vs cycle 0: 1.39
//
input-sequence: GCTCTA
binding signal, fold-change vs cycle 0: 0.788
//
input-sequence: GTAAAC
binding signal, fold-change vs cycle 0: 1.32
//
input-sequence: GAGCAC
binding signal, fold-change vs cycle 0: 0.674
//
input-sequence: CCATTA
binding signal, fold-change vs cycle 0: 1.32
//
input-sequence: AACCCT
binding signal, fold-change vs cycle 0: 0.971
//
input-sequence: CATCGG
binding signal, fold-change vs cycle 0: 0.568
//
input-sequence: CCAGAA
binding signal, fold-change vs cycle 0: 0.852
//
input-sequence: CAATCG
binding signal, fold-change vs cycle 0: 0.821
//
input-sequence: CCCGCC
binding signal, fold-change vs cycle 0: 0.164
//
input-sequence: ACTTGG
binding signal, fold-change vs cycle 0: 0.936
//
input-sequence: CGATGC
binding signal, fold-change vs cycle 0: 0.454
//
input-sequence: GGGCAC
binding signal, fold-change vs cycle 0: 0.281
//
input-sequence: AGTTAG
binding signal, fold-change vs cycle 0: 1.46
//
input-sequence: ATTTCA
binding signal, fold-change vs cycle 0: 1.7
//
input-sequence: GGGACC
binding signal, fold-change vs cycle 0: 0.386
//
input-sequence: CTCCGC
binding signal, fold-change vs cycle 0: 0.271
//
input-sequence: AAGGAG
binding signal, fold-change vs cycle 0: 1.13
//
input-sequence: AGATAA
binding signal, fold-change vs cycle 0: 1.87
//
input-sequence: AGCGTC
binding signal, fold-change vs cycle 0: 0.444
//
input-sequence: AAATTC
binding signal, fold-change vs cycle 0: 1.58
//
input-sequence: AGGGAA
binding signal, fold-change vs cycle 0: 0.989
//
input-sequence: TGCAAA
binding signal, fold-change vs cycle 0: 1.03
//
input-sequence: CGACGC
binding signal, fold-change vs cycle 0: 0.193
//
input-sequence: GCGGAA
binding signal, fold-change vs cycle 0: 0.373
//
input-sequence: CATTTA
binding signal, fold-change vs cycle 0: 1.69
//
input-sequence: CACGGC
binding signal, fold-change vs cycle 0: 0.228
//
input-sequence: GGGTCA
binding signal, fold-change vs cycle 0: 0.619
//
input-sequence: TCCGGA
binding signal, fold-change vs cycle 0: 0.552
//
input-sequence: CACGAA
binding signal, fold-change vs cycle 0: 0.781
//
input-sequence: CCGCCG
binding signal, fold-change vs cycle 0: 0.117
//
input-sequence: ACGAAG
binding signal, fold-change vs cycle 0: 0.9
//
input-sequence: AAAAGA
binding signal, fold-change vs cycle 0: 1.7
//
input-sequence: GCCCGA
binding signal, fold-change vs cycle 0: 0.243
//
input-sequence: ACACTC
binding signal, fold-change vs cycle 0: 0.948
//
input-sequence: AGCAGC
binding signal, fold-change vs cycle 0: 0.426
//
input-sequence: CTAACC
binding signal, fold-change vs cycle 0: 1.01
//
input-sequence: ACCGAC
binding signal, fold-change vs cycle 0: 0.497
//
input-sequence: CCGACC
binding signal, fold-change vs cycle 0: 0.309
